All figures here come from patent US6613718B2.

Tested on: field corn (Zea mays L., var. Dekalb 535, CORN)
Assay: Pre-emerge greenhouse screening, crop safety (phytotoxicity rating)
Format: in vivo
Conditions: 125 g ai/ha, 14 days after application
readout: CORN crop damage, phytotoxicity rating (0-100 scale)
I only need the number, thanks.

Illustrative cases are given below, each with its answer.
>  <molecule>
Cn1c(C(F)(F)F)cc(=O)n(-c2cc(Oc3ccccc3[N+](=O)[O-])c(Cl)cc2F)c1=S [Compound 1-49]

>  <testedSystem>
field corn (Zea mays L., var. Dekalb 535, CORN)

>  <measuredValue>
0

$$$$
>  <molecule>
Cn1nc(-c2cc(Oc3ncccn3)c(Cl)cc2F)c(=O)n(C)c1=S [Compound 4-1]

>  <testedSystem>
field corn (Zea mays L., var. Dekalb 535, CORN)

>  <measuredValue>
0

$$$$
>  <molecule>
Cn1c(C(F)(F)F)cc(=O)n(-c2cc(Oc3ccccc3N)c(Cl)cc2F)c1=S [Compound 1-48]

>  <testedSystem>
field corn (Zea mays L., var. Dekalb 535, CORN)

>  <measuredValue>
0

$$$$

Lab note: next molecule to report on.
The measured CORN crop damage, phytotoxicity rating (0-100 scale) that Fc1cc(Cl)c(Oc2ncccn2)cc1-c1nn2c(c1Br)CCCC2 [Compound 6-2] showed for field corn (Zea mays L., var. Dekalb 535, CORN) is 20

* * *

Tested on: large crabgrass (Digitaria sanguinalis, DIGSA)
Assay: Pre-emerge greenhouse herbicide activity screening, phytotoxicity rating
Format: in vivo
Conditions: 125 g ai/ha, 14 days after application
readout: DIGSA phytotoxicity rating (0-100 scale)

Sample records with DIGSA phytotoxicity rating (0-100 scale):
>  <molecule>
Cn1c(C(F)(F)F)cc(=O)n(-c2cc(Oc3ccccc3[N+](=O)[O-])c(Cl)cc2F)c1=S

>  <measuredValue>
95

$$$$
>  <molecule>
COc1ccccc1Oc1cc(-n2c(=O)cc(C(F)(F)F)n(C)c2=S)c(F)cc1C#N

>  <measuredValue>
100

$$$$
>  <molecule>
Cn1nc(-c2cc(Oc3ncccn3)c(Cl)cc2F)c(Cl)c1[S+]([O-])C(F)F (centres unmarked)

>  <measuredValue>
100

$$$$

For "Cn1nc(-c2cc(Oc3ncccn3)c(Cl)cc2F)c(=O)n(C)c1=S" the molecule record lists DIGSA phytotoxicity rating (0-100 scale) as 99

Input "Cn1c(C(F)(F)F)cc(=O)n(-c2cc(Oc3ccccc3)c(Cl)cc2F)c1=S" . Output DIGSA phytotoxicity rating (0-100 scale): 95

In plain terms, "Fc1cc(Cl)c(Oc2ncccn2)cc1-c1nn2c(c1Br)CCCC2" has a documented DIGSA phytotoxicity rating (0-100 scale) of 100

Value of measured DIGSA phytotoxicity rating (0-100 scale) for the entry "Cn1c(C(F)(F)F)cc(=O)n(-c2cc(Oc3ccccc3C#N)c(Cl)cc2F)c1=S" : 90

DIGSA phytotoxicity rating (0-100 scale) for "Cn1c(=S)n(C)c(=O)n(-c2cc(Oc3ccccc3)c(Cl)cc2F)c1=O" is 75

* * *

Each entry below carries its reported CORN crop damage, phytotoxicity rating (0-100 scale).
Test system: field corn (Zea mays L., var. Dekalb 535, CORN)
Assay: Post-emerge greenhouse screening, crop safety / corn selectivity (phytotoxicity rating)
Assay type: in vivo
Conditions: 125 g ai/ha, 14 days after application

Some compounds with known CORN crop damage, phytotoxicity rating (0-100 scale) results, for comparison:
>  <compound>
Cn1c(=S)n(C)c(=O)n(-c2cc(Oc3ccccc3)c(Cl)cc2F)c1=O [Compound 2-16]

>  <measuredValue>
0

$$$$
>  <compound>
Cn1c(C(F)(F)F)cc(=O)n(-c2cc(Oc3ncccc3[N+](=O)[O-])c(Cl)cc2F)c1=S [Compound 1-9]

>  <measuredValue>
0

$$$$
>  <compound>
COc1ccc(Oc2cc(-n3c(=O)cc(C(F)(F)F)n(C)c3=S)c(F)cc2C#N)cc1 [Compound 1-72]

>  <measuredValue>
0

$$$$
>  <compound>
Fc1cc(Cl)c(Oc2ncccn2)cc1-c1nn2c(c1Br)CCCC2 [Compound 6-2]

>  <measuredValue>
15

$$$$
>  <compound>
Cn1nc(-c2cc(Oc3ncccn3)c(Cl)cc2F)c(=O)n(C)c1=S [Compound 4-1]

>  <measuredValue>
5

$$$$
>  <compound>
Cn1c(C(F)(F)F)cc(=O)n(-c2cc(Oc3ccccc3O)c(C#N)cc2F)c1=S [Compound 1-70]

>  <measuredValue>
0

$$$$
>  <compound>
N#Cc1c(-c2cc(Oc3ncccn3)c(Cl)cc2F)nn2c1CCCC2 [Compound 6-17]

>  <measuredValue>
0

$$$$

We next turn to a different compound, shown below.
Looking up COc1ccccc1Oc1cc(-n2c(=O)cc(C(F)(F)F)n(C)c2=S)c(F)cc1C#N [Compound 1-71] , I see its CORN crop damage, phytotoxicity rating (0-100 scale) listed as 0

* * *

Test system: large crabgrass (Digitaria sanguinalis, DIGSA)
Test: Pre-emerge greenhouse herbicide activity screening, phytotoxicity rating
Format: in vivo
Details: 250 g ai/ha, 14 days after application
Measured DIGSA phytotoxicity rating (0-100 scale) accompanies every entry in the list below.
Would you mind answering with just the numeric figure?

>  <itemSmiles>
O=[N+]([O-])c1ccccc1Oc1cc(-c2nn3c(c2Cl)CCCC3)c(F)cc1Cl

>  <testedSystem>
large crabgrass (Digitaria sanguinalis, DIGSA)

>  <DIGSA phytotoxicity rating (0-100 scale)>
90

$$$$
>  <itemSmiles>
Cn1c(C(F)(F)F)cc(=O)n(-c2cc(Oc3ccccc3C#N)c(Cl)cc2F)c1=S

>  <testedSystem>
large crabgrass (Digitaria sanguinalis, DIGSA)

>  <DIGSA phytotoxicity rating (0-100 scale)>
99

$$$$
>  <itemSmiles>
Cn1c(C(F)(F)F)cc(=O)n(-c2cc(Oc3ccccc3)c(Cl)cc2F)c1=S

>  <testedSystem>
large crabgrass (Digitaria sanguinalis, DIGSA)

>  <DIGSA phytotoxicity rating (0-100 scale)>
100

$$$$
>  <itemSmiles>
COc1ccccc1Oc1cc(-n2c(=O)cc(C(F)(F)F)n(C)c2=S)c(F)cc1C#N

>  <testedSystem>
large crabgrass (Digitaria sanguinalis, DIGSA)

>  <DIGSA phytotoxicity rating (0-100 scale)>
100

$$$$
>  <itemSmiles>
Cn1c(=S)n(C)c(=O)n(-c2cc(Oc3ncccn3)c(Cl)cc2F)c1=O

>  <testedSystem>
large crabgrass (Digitaria sanguinalis, DIGSA)

>  <DIGSA phytotoxicity rating (0-100 scale)>
100

$$$$

DIGSA phytotoxicity rating (0-100 scale) reported for this compound "Cn1c(C(F)(F)F)cc(=O)n(-c2cc(Oc3ccccc3O)c(C#N)cc2F)c1=S" : 99

The compound listed as "Fc1cc(Cl)c(Oc2ncccn2)cc1-c1nn2c(c1Cl)CCCC2" shows DIGSA phytotoxicity rating (0-100 scale) equal to 100

DIGSA phytotoxicity rating (0-100 scale) measured on "Fc1cc(Cl)c(Oc2ncccn2)cc1-c1nn2c(c1Br)CCCC2" = 100

* * *

Test system: upland rice (Oryza sp., var.Tebonnet, RICE)
Assay: Post-emerge greenhouse screening, crop safety (phytotoxicity rating)
Type: in vivo
Settings: 250 g ai/ha, 14 days after application
readout: RICE crop damage, phytotoxicity rating (0-100 scale)
Give a plain numeric answer without units written out.

Reference set, count: 7
>  <itemSmiles>
Cn1c(=S)n(C)c(=O)n(-c2cc(Oc3ncccn3)c(Cl)cc2F)c1=O

>  <measuredValue>
40

$$$$
>  <itemSmiles>
Cn1c(C(F)(F)F)cc(=O)n(-c2cc(Oc3ncccn3)c(Cl)cc2F)c1=S

>  <measuredValue>
100

$$$$
>  <itemSmiles>
COc1ccccc1Oc1cc(-n2c(=O)cc(C(F)(F)F)n(C)c2=S)c(F)cc1C#N

>  <measuredValue>
0

$$$$
>  <itemSmiles>
Cn1c(=S)n(C)c(=O)n(-c2cc(Oc3ccccc3)c(Cl)cc2F)c1=O

>  <measuredValue>
0

$$$$
>  <itemSmiles>
Cn1c(=S)n(C)c(=O)n(-c2cc(Oc3ccccc3N)c(Cl)cc2F)c1=O

>  <measuredValue>
0

$$$$
>  <itemSmiles>
Cn1c(C(F)(F)F)cc(=O)n(-c2cc(Oc3ncccc3[N+](=O)[O-])c(Cl)cc2F)c1=S

>  <measuredValue>
0

$$$$
>  <itemSmiles>
Cn1c(C(F)(F)F)cc(=O)n(-c2cc(Oc3ccccc3N)c(Cl)cc2F)c1=S

>  <measuredValue>
35

$$$$

Now let's try a different one.
// field: RICE crop damage, phytotoxicity rating (0-100 scale); key: "Cn1c(=S)n(C)c(=O)n(-c2cc(Oc3ccccc3[N+](=O)[O-])c(Cl)cc2F)c1=O" ; value = 0

* * *

System: barnyardgrass (Echinochloa crus-galli, ECHCG)
Assay: Post-emerge greenhouse herbicide activity screening, phytotoxicity rating
Assay type: in vivo
Settings: 250 g ai/ha, 14 days after application
// reported ECHCG phytotoxicity rating (0-100 scale) per item
Just the number, please, no unit attached.

Past entries and their recorded results:
>  <compound>
O=[N+]([O-])c1ccccc1Oc1cc(-c2nn3c(c2Cl)CCCC3)c(F)cc1Cl [Compound 6-19]

>  <ECHCG phytotoxicity rating (0-100 scale)>
60

$$$$
>  <compound>
Cn1c(C(F)(F)F)cc(=O)n(-c2cc(Oc3ccccc3[N+](=O)[O-])c(Cl)cc2F)c1=S [Compound 1-49]

>  <ECHCG phytotoxicity rating (0-100 scale)>
0

$$$$
>  <compound>
N#Cc1c(-c2cc(Oc3ncccn3)c(Cl)cc2F)nn2c1CCCC2 [Compound 6-17]

>  <ECHCG phytotoxicity rating (0-100 scale)>
65

$$$$

Now look at this entry.
Hey, barnyardgrass (Echinochloa crus-galli, ECHCG) data for Fc1cc(Cl)c(Oc2ncccn2)cc1-c1nn2c(c1Cl)CCCC2 [Compound 6-1] : ECHCG phytotoxicity rating (0-100 scale) came out at 100
